Target: T1, human tissue factor pathway inhibitor (TFPI) (human, UniProt P10646 29-304, limits assumed)
T1 construct: bought; also called hTFPI; human TFPI
T1 sequence (looked up): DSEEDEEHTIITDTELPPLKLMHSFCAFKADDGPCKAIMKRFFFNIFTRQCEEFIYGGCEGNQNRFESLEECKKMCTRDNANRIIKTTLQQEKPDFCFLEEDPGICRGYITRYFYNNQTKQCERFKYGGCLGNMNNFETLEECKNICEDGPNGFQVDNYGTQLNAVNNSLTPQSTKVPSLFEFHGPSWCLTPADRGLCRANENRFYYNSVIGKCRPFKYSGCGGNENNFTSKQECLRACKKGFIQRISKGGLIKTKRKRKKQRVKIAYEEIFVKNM
Assay: competitive ELISA
reported metric: variant/wild-type (ratio)
Please respond with the number in ratio and leave the unit unwritten.

Use these answered entries as a reference point.
4B7 HC_D62I (Fab, V domains shown) VH: QVQLQQSGPGLVKPSQTLSLTCAISGDSVSSNSAAWSWIRQSPGRGLEWLGIIYKRSKWYNIYAVSVKSRITINPDTSKNQFSLQLNSVTPEDTAVYYCARWHSDKHWGFDYWGQGTLVTVSS VL: DIVMTQSPLSLPVTPGEPASISCRSSQSLVFSDGNTYLNWYLQKPGQSPQLLIYKGSNRASGVPDRFSGSGSGTDFTLKISRVEAEDVGVYYCQQYDSYPLTFGQGTKVEIKR | 9.8
4B7 LC_F31M (Fab, V domains shown) VH: QVQLQQSGPGLVKPSQTLSLTCAISGDSVSSNSAAWSWIRQSPGRGLEWLGIIYKRSKWYNDYAVSVKSRITINPDTSKNQFSLQLNSVTPEDTAVYYCARWHSDKHWGFDYWGQGTLVTVSS VL: DIVMTQSPLSLPVTPGEPASISCRSSQSLVMSDGNTYLNWYLQKPGQSPQLLIYKGSNRASGVPDRFSGSGSGTDFTLKISRVEAEDVGVYYCQQYDSYPLTFGQGTKVEIKR | 1.7

Would you kindly look at the next entry?
Query: For the binder 4B7 LC_N35V LC_G56D (Fab, V domains shown) VH: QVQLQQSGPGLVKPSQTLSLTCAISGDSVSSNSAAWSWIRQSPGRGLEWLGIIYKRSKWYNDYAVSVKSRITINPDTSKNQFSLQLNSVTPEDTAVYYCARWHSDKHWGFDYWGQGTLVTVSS VL: DIVMTQSPLSLPVTPGEPASISCRSSQSLVFSDGVTYLNWYLQKPGQSPQLLIYKDSNRASGVPDRFSGSGSGTDFTLKISRVEAEDVGVYYCQQYDSYPLTFGQGTKVEIKR , what variant/wild-type is on record?
Reply: 1.9

The reported numbers originate from patent USRE47150.
